- tested_target: Cathepsin D (Cat D) (Homo sapiens, UniProt P07339)
- Construct: Recombinant Cat D was expressed in CHO cells; made in house; host or cells: CHO cells
- Sequence (P07339 65-412, species assumed): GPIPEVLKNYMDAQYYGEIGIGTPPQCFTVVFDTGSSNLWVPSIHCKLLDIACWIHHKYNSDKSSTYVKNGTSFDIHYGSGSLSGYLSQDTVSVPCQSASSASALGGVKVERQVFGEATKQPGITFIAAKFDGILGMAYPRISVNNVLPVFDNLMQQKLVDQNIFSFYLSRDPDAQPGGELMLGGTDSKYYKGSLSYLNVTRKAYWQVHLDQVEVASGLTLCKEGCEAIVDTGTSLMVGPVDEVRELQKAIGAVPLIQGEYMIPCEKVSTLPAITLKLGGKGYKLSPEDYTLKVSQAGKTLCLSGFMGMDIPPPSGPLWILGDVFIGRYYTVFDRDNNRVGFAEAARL
- assay_explanation: In vitro enzymatic Cathepsin D (Cat D) FRET assay
- Format: biochemical
- condition: read-out: CatD IC50
endpoint_name: IC50 (µM)

Below, 5 molecules whose answers are already recorded.
molecule | unit_of_measurement | IC50
CC1(C)C(N)=N[C@](C)(c2cc(Nc3nccc4cc(Cl)cnc34)cc(F)c2F)CS1(=O)=O [Example 69] | µM | 8.56
C[C@@]1(c2cc(Nc3nccc4cc(C#N)cnc34)cnc2F)CS(=O)(=O)C2(CCC2)C(N)=N1 [Example 386] | µM | 54.7
COc1ncc(NC(=O)c2ccc(Cl)cn2)cc1[C@]1(C)CS(=O)(=O)C(C)(C)C(N)=N1 [Example 170] | µM | 305
COc1cnc2c(Nc3ccc(F)c([C@]4(C)CS(=O)(=O)[C@@](C)(F)C(N)=N4)c3)nccc2n1 [Example 59] | µM | 388
C[C@]1(F)C(N)=N[C@](C)(c2cc(Nc3nccc4cc(C#N)cnc34)ccc2F)CS1(=O)=O [Example 60] | µM | 99.9

(I) Cc1cc(C#N)cnc1C(=O)Nc1ccc(F)c([C@]2(CF)CS(=O)(=O)C3(CCC3)C(N)=N2)c1 [Example 368]
(II) CC1(C)C(N)=N[C@](C)(c2cc(Nc3nccc4cc(OCC(F)(F)F)cnc34)ccc2F)CS1(=O)=O [Example 419]
## Input Input pair: I , II . Output: entry with lower IC50. Choose, then provide that item's label.
## Output I
(I: 222 µM, II: 631 µM)

(a) CC1(C)C(N)=N[C@](C)(c2cc(Nc3nccc4cc(OCC5CC5)cnc34)ccc2F)CS1(=O)=O [Example 260]
(b) CC#Cc1ccnc(Oc2ccc(F)c([C@]3(C)CS(=O)(=O)C(C)(C)C(N)=N3)c2)c1 [Example 286]
## Input Input pair: a , b . Output: entry with lower IC50. Choose, then provide that item's label.
## Output b

----------
- System: Aβ40 in conditioned medium of cells stably expressing Amyloid Precursor Protein (APP)
- assay_explanation: In vitro BACE cell-based assay (HEK cell assay), Aβ40 sandwich ELISA
- condition: Homo sapiens, HEK293; average IC50, HEK cells
pIC50: −log10 of the molar value.
endpoint_name: pIC50

Below, 5 compounds whose answers are already recorded.
compound | pIC50
CC1(C)C(N)=N[C@](CF)(c2cc(NC(=O)c3ccc(Cl)cn3)ccc2F)CS1(=O)=O | 7.79
Cc1cc(OC(F)F)cnc1C(=O)Nc1ccc(F)c([C@]2(CF)CS(=O)(=O)C3(CC3)C(N)=N2)c1 | 8.21
Cc1cc(Cl)cnc1C(=O)Nc1ccc(F)c([C@@]2(CF)CS(=O)(=O)C3(CC3)C(N)=N2)c1 | 6.04
Cc1cc(Cl)cnc1C(=O)Nc1ccc(F)c([C@]2(CF)CS(=O)(=O)C3(CC3)C(N)=N2)c1 | 8.36
COc1cnc2c(Nc3ccc(F)c([C@@]4(C)N=C(N)C5(CC5)S(=O)(=O)[C@@H]4F)c3)nccc2n1 | 7.07

(A) C[C@@]1(c2cc(Nc3nccc4cc(Cl)cnc34)ccc2F)CS(=O)(=O)C2(CCOC2)C(N)=N1 (mixture of isomers)
(B) Cc1cc(OC(F)F)cnc1C(=O)Nc1cnc(F)c([C@]2(C)CS(=O)(=O)C3(CC3)C(N)=N2)c1
(C) C[C@]1(F)C(N)=N[C@](C)(c2cc(Nc3ncc(F)c4cc(Cl)cnc34)ccc2F)CS1(=O)=O
## Input Returns the items ordered by pIC50, from maximum to minimum. Please list the labels in the order you were asked to rank them.
## Output B, A, C

----------
- tested_target: Beta Secretase enzyme (BACE1) (Homo sapiens, UniProt P56817)
- Sequence (P56817 46-501): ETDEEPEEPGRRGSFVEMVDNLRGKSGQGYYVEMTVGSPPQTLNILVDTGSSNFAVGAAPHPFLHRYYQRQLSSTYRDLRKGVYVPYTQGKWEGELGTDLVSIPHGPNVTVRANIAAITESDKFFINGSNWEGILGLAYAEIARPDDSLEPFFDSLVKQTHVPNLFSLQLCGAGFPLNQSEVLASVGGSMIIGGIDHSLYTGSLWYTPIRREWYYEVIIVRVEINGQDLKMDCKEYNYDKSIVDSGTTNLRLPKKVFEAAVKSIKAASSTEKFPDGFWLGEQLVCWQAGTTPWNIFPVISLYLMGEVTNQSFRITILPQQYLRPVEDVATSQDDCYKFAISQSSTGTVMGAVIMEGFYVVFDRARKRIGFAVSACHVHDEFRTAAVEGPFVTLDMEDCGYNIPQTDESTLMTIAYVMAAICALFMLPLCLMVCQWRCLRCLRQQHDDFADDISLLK
- assay_explanation: In vitro enzymatic BACE FRET assay
- Assay type: biochemical
- condition: read-out: BACE1 FRET assay IC50
pIC50: −log10 of the molar value.
endpoint_name: pIC50

molecule | tested_target | meas_value
CC1(C)C(N)=N[C@](C)(c2cc(Nc3ncc(F)c4cc(C#N)cnc34)ccc2F)CS1(=O)=O [Example 76] | Beta Secretase enzyme (BACE1) (Homo sapiens, UniProt P56817) | 8.70
CC1(C)C(N)=N[C@](C)(c2cc(Oc3ccc4ccccc4c3)ccc2F)CS1(=O)=O [Example 102] | Beta Secretase enzyme (BACE1) (Homo sapiens, UniProt P56817) | 5.63
CC1(C)C(N)=N[C@](C)(c2cc(Nc3nccc4cc(C#N)cnc34)cnc2F)CS1(=O)=O [Example 385] | Beta Secretase enzyme (BACE1) (Homo sapiens, UniProt P56817) | 8.58
CC(C)c1c(C(=O)Nc2ccc(F)c([C@]3(CF)CS(=O)(=O)C(C)(C)C(N)=N3)c2)nc2ccc(Cl)cn12 [Example 395] | Beta Secretase enzyme (BACE1) (Homo sapiens, UniProt P56817) | 7.42
COc1cnc2c(Nc3ccc(F)c([C@]4(C)CS(=O)(=O)C(C)(C)C(N)=N4)c3)ncc(F)c2c1 [Example 50] | Beta Secretase enzyme (BACE1) (Homo sapiens, UniProt P56817) | 8.70

(1) CC1(C)C(N)=N[C@](CF)(c2cc(NC(=O)c3ncc(Cl)nc3Cl)ccc2F)CS1(=O)=O [Example 380]
(2) COc1cnc2c(Nc3ccc(F)c([C@@]4(C)N=C(N)C(C)(C)S(=O)(=O)[C@@H]4F)c3)nccc2c1 [Example 44]
## Input Field: entry with larger pIC50 (options 1 / 2 ). Choose, then provide that item's label.
## Output 1

(a) CC1(C)C(N)=N[C@](C)(c2cc(NC(=O)c3cnc(OCC(F)(F)F)cn3)cnc2F)CS1(=O)=O [Example 402]
(b) CC1(C)C(N)=N[C@](C)(c2cc(Oc3ccc(C#N)cc3)ccc2F)CS1(=O)=O [Example 96]
(c) COc1cnc2c(Nc3ccc(F)c([C@]4(C)CS(=O)(=O)C(C)(C)C(N)=N4)c3)ncnc2c1 [Example 51]
(d) COc1cnc2c(Nc3ccc(F)c([C@]4(C)CS(=O)(=O)CC(N)=N4)c3)nccc2c1 [Example 56]
(e) COc1cnc(C(=O)Nc2ccc(F)c([C@]3(C)CS(=O)(=O)C(C)C(N)=N3)c2)cn1 (stereo partly drawn) [Example 82]
## Input Returns the items ordered by pIC50, from maximum to minimum. Please list the labels in the order you were asked to rank them.
## Output a, c, e, d, b

(A) CC1(C)C(N)=N[C@](CF)(c2cc(NC(=O)c3ncc(F)cc3F)ccc2F)CS1(=O)=O [Example 378]
(B) CC1(C)C(N)=N[C@](CF)(c2cc(NC(=O)c3ccc(C#N)cn3)ccc2F)CS1(=O)=O [Example 406]
## Input Input pair: A , B . Output: entry with lower pIC50. Choose, then provide that item's label.
## Output A

(I) CC1(C)C(N)=N[C@](C)(c2cc(NC(=O)c3ccc(C#N)cn3)cnc2F)CS1(=O)=O [Example 403]
(II) COCc1cc(Cl)cnc1C(=O)Nc1ccc(F)c([C@]2(CF)CS(=O)(=O)C3(CCC3)C(N)=N2)c1 [Example 370]
(III) Cc1c(C(=O)Nc2ccc(F)c([C@]3(CF)CS(=O)(=O)C(C)(C)C(N)=N3)c2)nc2ccc(C#N)cn12 [Example 390]
(IV) CC1(C)C(N)=N[C@](C)(c2cc(Oc3cc(F)cc(C(F)(F)F)c3)ccc2F)CS1(=O)=O [Example 98]
(V) CC1(C)C(N)=N[C@](C)(c2cc(NC(=O)c3ccc(C(F)F)cn3)cnc2F)CS1(=O)=O [Example 404]
## Input Rank items: key pIC50, increasing. Please list the labels in the order you were asked to rank them.
## Output IV, V, III, I, II

----------
- Test system: Aβ40 in conditioned medium of cells stably expressing Amyloid Precursor Protein (APP)
- assay_explanation: In vitro BACE cell-based assay (HEK cell assay), Aβ40 sandwich ELISA
- condition: Homo sapiens, HEK293
pIC50: −log10 of the molar value.
endpoint_name: pIC50

Below, 10 compounds whose answers are already recorded.
compound | tested_target | pIC50
C[C@@]1(c2cc(NC(=O)c3ccc(Cl)cn3)ccc2F)CS(=O)(=O)[C@]2(C[C@@H](F)C2)C(N)=N1 [Example 125] | Aβ40 in conditioned medium of cells stably expressing Amyloid Precursor Protein (APP) | 7.97
Cc1cnc(C(=O)Nc2ccc(F)c([C@]3(C)CS(=O)(=O)C(C)(C)C(N)=N3)c2)c(C)n1 [Example 111] | Aβ40 in conditioned medium of cells stably expressing Amyloid Precursor Protein (APP) | 7.61
CC1(C)C(N)=N[C@](CF)(c2cc(NC(=O)c3ccc(OCC#CCF)cn3)ccc2F)CS1(=O)=O [Example 389] | Aβ40 in conditioned medium of cells stably expressing Amyloid Precursor Protein (APP) | 8.85
COc1cc(Cl)cnc1C(=O)Nc1ccc(F)c([C@@]2(C)N=C(N)C3(CCC3)S(=O)(=O)[C@@H]2F)c1 [Example 139] | Aβ40 in conditioned medium of cells stably expressing Amyloid Precursor Protein (APP) | 7.93
Cc1c(C(=O)Nc2ccc(F)c([C@]3(CF)CS(=O)(=O)C(C)(C)C(N)=N3)c2)nc2ccc(C#N)cn12 [Example 390] | Aβ40 in conditioned medium of cells stably expressing Amyloid Precursor Protein (APP) | 7.63
Cc1cc(OCC2CCC2)cnc1C(=O)Nc1ccc(F)c([C@]2(CF)CS(=O)(=O)C(C)(C)C(N)=N2)c1 [Example 151] | Aβ40 in conditioned medium of cells stably expressing Amyloid Precursor Protein (APP) | 7.00
Cc1cc(C(F)F)cnc1C(=O)Nc1ccc(F)c([C@@]2(C)N=C(N)C3(CCC3)S(=O)(=O)[C@@H]2F)c1 [Example 136] | Aβ40 in conditioned medium of cells stably expressing Amyloid Precursor Protein (APP) | 8.31
Cc1cnc(C(=O)Nc2ccc(F)c([C@]3(C)CS(=O)(=O)C(C)(C)C(N)=N3)c2)cn1 [Example 110] | Aβ40 in conditioned medium of cells stably expressing Amyloid Precursor Protein (APP) | 7.84
Cc1cc(OC(F)F)cnc1C(=O)Nc1ccc(F)c([C@]2(CF)CS(=O)(=O)C(C)(C)C(N)=N2)c1 [Example 148] | Aβ40 in conditioned medium of cells stably expressing Amyloid Precursor Protein (APP) | 8.04
C[C@]1(c2cc(NC(=O)c3ccc(Cl)cn3)ccc2F)N=C(N)C2(CCC2)S(=O)(=O)[C@@H]1F [Example 131] | Aβ40 in conditioned medium of cells stably expressing Amyloid Precursor Protein (APP) | 8.05

(a) CC1(C)C(N)=N[C@](CF)(c2cc(NC(=O)c3cnc(C(F)F)cn3)ccc2F)CS1(=O)=O [Example 376]
(b) COc1ccc2nc(C(=O)Nc3ccc(F)c([C@]4(CF)CS(=O)(=O)C(C)(C)C(N)=N4)c3)c(C)n2c1 [Example 392]
(c) CC1(C)C(N)=N[C@](C)(c2cc(Nc3nccc4cc(C#N)cnc34)cnc2F)CS1(=O)=O [Example 385]
## Input Returns the items ordered by pIC50, from maximum to minimum. Please list the labels in the order you were asked to rank them.
## Output c, a, b
(c: 8.43, a: 7.21, b: 6.08)
